- System: PEO-1
- procedure-details: Excess HSA synergy score (sum over dose matrix of excess over highest single agent) (score (summed % response)); higher = less synergy / more antagonism (negative = synergy)
- condition-info: 72 h; read-out: viability/apoptosis luminescence (CellTiter-Glo or Caspase3-Glo / not stated per table); matrix design: 6x6, 5-fold dilutions (primary screen)
The full ranking holds about 1,500 compounds; the median of “Excess HSA synergy score (sum over dose matrix of excess over highest single agent)” is about 43, and the lowest 2% start at about -900. For the sample, the lowest values were picked, then their nearest neighbours and some compounds at random.
readout-kind: Excess HSA synergy score

{"columns": ["compound", "readout-kind", "obs-value"],
 "data": [
  ["CC(=O)O/N=C1/C(=C2/C(=O)Nc3cc(Br)ccc32)Nc2ccccc21 [6-Bromoindirubin-3'-acetoxime] + CC[C@H](NC(=O)[C@H](C)NC)C(=O)N1C[C@@H](O)C[C@H]1Cc1c(-c2[nH]c3cc(F)ccc3c2C[C@@H]2C[C@H](O)CN2C(=O)[C@H](CC)NC(=O)[C@H](C)NC)[nH]c2cc(F)ccc12 [Birinapant]", "Excess HSA synergy score", 131],
  ["Nc1nc2[nH]cc(CCc3ccc(C(=O)N[C@@H](CCC(=O)O)C(=O)O)cc3)c2c(=O)[nH]1 [Pemetrexed disodium] + CC[C@H](NC(=O)[C@H](C)NC)C(=O)N1C[C@@H](O)C[C@H]1Cc1c(-c2[nH]c3cc(F)ccc3c2C[C@@H]2C[C@H](O)CN2C(=O)[C@H](CC)NC(=O)[C@H](C)NC)[nH]c2cc(F)ccc12 [Birinapant]", "Excess HSA synergy score", -173],
  ["CC(C)c1cc(C(C)C)c(CC(=O)NS(=O)(=O)Oc2c(C(C)C)cccc2C(C)C)c(C(C)C)c1 [Avasimibe] + CC[C@H](NC(=O)[C@H](C)NC)C(=O)N1C[C@@H](O)C[C@H]1Cc1c(-c2[nH]c3cc(F)ccc3c2C[C@@H]2C[C@H](O)CN2C(=O)[C@H](CC)NC(=O)[C@H](C)NC)[nH]c2cc(F)ccc12 [Birinapant]", "Excess HSA synergy score", 95.2],
  ["CS(=O)(=O)Oc1ccc2c(NC(N)=O)c(C(=O)c3ccc(Cl)cc3Cl)oc2c1 [Lirimilast] + CC[C@H](NC(=O)[C@H](C)NC)C(=O)N1C[C@@H](O)C[C@H]1Cc1c(-c2[nH]c3cc(F)ccc3c2C[C@@H]2C[C@H](O)CN2C(=O)[C@H](CC)NC(=O)[C@H](C)NC)[nH]c2cc(F)ccc12 [Birinapant]", "Excess HSA synergy score", -20.9]
]}
